target-of-assay: human ether-à-go-go-related gene (hERG) potassium channel (human, UniProt Q12809);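 also: peak tail current of the secondary pulse compared with the same well before compound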
Sequence (Q12809 whole entry, looked up): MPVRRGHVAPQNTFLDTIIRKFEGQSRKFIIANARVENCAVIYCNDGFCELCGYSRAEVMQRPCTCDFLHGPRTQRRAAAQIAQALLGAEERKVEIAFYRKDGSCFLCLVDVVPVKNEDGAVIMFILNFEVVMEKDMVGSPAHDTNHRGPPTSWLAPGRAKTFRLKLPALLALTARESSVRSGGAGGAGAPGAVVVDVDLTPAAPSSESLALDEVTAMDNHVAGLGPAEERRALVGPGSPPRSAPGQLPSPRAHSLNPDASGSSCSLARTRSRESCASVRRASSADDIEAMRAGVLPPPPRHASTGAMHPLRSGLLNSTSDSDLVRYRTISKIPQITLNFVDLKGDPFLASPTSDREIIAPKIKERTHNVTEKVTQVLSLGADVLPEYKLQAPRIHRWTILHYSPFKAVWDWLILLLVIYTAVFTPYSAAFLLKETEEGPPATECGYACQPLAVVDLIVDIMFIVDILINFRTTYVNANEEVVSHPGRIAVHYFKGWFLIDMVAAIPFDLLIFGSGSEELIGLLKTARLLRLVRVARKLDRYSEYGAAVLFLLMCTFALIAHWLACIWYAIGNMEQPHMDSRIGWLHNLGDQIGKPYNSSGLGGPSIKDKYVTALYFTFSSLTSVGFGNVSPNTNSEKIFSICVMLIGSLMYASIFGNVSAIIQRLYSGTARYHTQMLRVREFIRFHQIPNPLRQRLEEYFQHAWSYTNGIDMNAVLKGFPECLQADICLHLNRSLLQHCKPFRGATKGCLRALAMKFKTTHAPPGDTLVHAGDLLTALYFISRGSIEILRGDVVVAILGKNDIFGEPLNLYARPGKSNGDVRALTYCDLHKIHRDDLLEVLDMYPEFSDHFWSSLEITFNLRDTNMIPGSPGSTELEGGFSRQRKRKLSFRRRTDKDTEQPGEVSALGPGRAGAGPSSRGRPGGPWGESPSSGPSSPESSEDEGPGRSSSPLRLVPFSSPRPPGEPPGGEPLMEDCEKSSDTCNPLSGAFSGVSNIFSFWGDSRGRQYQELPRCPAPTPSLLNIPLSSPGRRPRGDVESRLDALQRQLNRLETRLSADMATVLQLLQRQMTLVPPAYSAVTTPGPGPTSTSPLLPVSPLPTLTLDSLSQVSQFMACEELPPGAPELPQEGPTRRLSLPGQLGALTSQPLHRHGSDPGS
run-description: primary screen, population patch clamp on CHO cells stably expressing hERG; higher = less effect of the substance
The whole screen tested about 310,000 compounds, of which about 14,000 (4.5%) showed an effect of 50% or more. The effect is printed as a negative number. Only a selection was taken, and strong results are over-represented in it overall.
Entries and their hERG current change (%, negative = inhibition) at 10uM
value-type: hERG current change (%, negative = inhibition) at 10uM (%)

compound	u	assay-result
CC(C(=O)Nc1ccc(S(=O)(=O)N2CCCC2)cc1)N(C)Cc1ccc(F)cc1 (centres unmarked)	%	-9.91
CCCOc1ccc(C2(C(=O)O)CCCC2)cc1	%	6.16
CCCCN(CC)CCCNC(=O)c1ccc(CS(=O)(=O)c2c(Cl)cccc2Cl)o1	%	-55.4
COc1ccc(/C=N/NC(=O)c2nnn(-c3nonc3N)c2-c2cccs2)c(OC)c1	%	13.1
Nn1c(SCc2ccccc2)nnc1C1CCCCC1	%	7.68
O=C(NCCN1CCOCC1)c1ccc(CS(=O)(=O)c2c(Cl)cccc2Cl)o1	%	0.302
Cc1cc(C)nc(NS(=O)(=O)c2ccc(NC(=O)COc3ccccc3F)cc2)n1	%	4.9
Cl.N=c1sccn1CC(=O)N1CCc2ccccc21	%	-8.84
CNC(=O)COC(=O)c1cccc(S(=O)(=O)N2CCN(c3ccc(F)cc3)CC2)c1	%	-0.232
COc1ccc([C@@H]2CC=C(C(=O)O)CN2S(=O)(=O)c2ccc(Cl)cc2)cc1	%	7.54
O=C(NCc1ccccc1)C1=C[C@H](C2CCCCC2)C[C@H](OCCCCO)O1	%	-3.07
COC(=O)c1cccc(Oc2cccc(Cl)n2)c1	%	14.7
CCCCN(CCCNC(=O)c1ccc(CS(=O)(=O)c2c(Cl)cccc2Cl)o1)Cc1ccccc1	%	-66.1
CCc1ccccc1N1CCN(S(=O)(=O)c2ccc(F)c(C)c2)CC1	%	4.43
O=C(NC1CC1)c1ccc(CS(=O)(=O)c2c(Cl)cccc2Cl)o1	%	-5.87
CC(C(Sc1ccccc1N)c1ccccc1)[N+](=O)[O-] (centres unmarked)	%	7.82
CC1CCN(C2=NC(=O)/C(=C/c3cccc(O)c3)S2)CC1	%	-18.5
O=C(NCCCN1CCCC1)c1ccc(CS(=O)(=O)c2c(Cl)cccc2Cl)o1	%	-10.5
Cc1cc(S(=O)(=O)N2CCN(c3c(C)cccc3C)CC2)ccc1F	%	-4.1
CCC(C)N(C)Cc1cccc(C2(O)CCN(S(=O)(=O)c3ccc(F)c(C)c3)CC2)c1 (centres unmarked)	%	-72.4
